Experiment: Pharmacokinetics of HC-7366 in male and female beagle dogs following IV and oral administration of HC-7366-K (plasma and urine, LC-MS/MS)
Assay type: in vivo, Beagle Dog
Settings: plasma; male beagle dog, oral 150 mg/kg; read-out: terminal half-life (t1/2) (converted)
RECORDED_METRIC: half-life (h)
// units = h; emit number, no label

Exercise: Quick one: give measured half-life for CNC(=O)c1ncn2cc(-c3c(F)ccc(NS(=O)(=O)c4cc(Cl)cnc4OC)c3F)ncc12 [HC-7366-K]
Key: 11

---

Assay: Solubility testing in organic solvents and water (visual, room temperature)
Type: physicochemical
Settings: NBA, 24 °C, organic solvent or mixture, thermodynamic from solid, NBA, read-out: Solubility
RECORDED_METRIC: Solubility

Exercise: Quick one: give measured Solubility for CNC(=O)c1ncn2cc(-c3c(F)ccc(NS(=O)(=O)c4cc(Cl)cnc4OC)c3F)ncc12 [Free acid Form I]
Key: ~700 µg/mL

---

Experiment: Pharmacokinetics of HC-7366 in male and female beagle dogs following IV and oral administration of HC-7366-K (plasma and urine, LC-MS/MS)
Format: in vivo, Beagle Dog
Settings: dog, plasma; female Beagle dogs, intravenous 0.5 mg/kg; read-out: Clearance (CL)
RECORDED_METRIC: clearance (mL/h/kg)
// units = mL/h/kg; emit number, no label

Exercise: Quick one: give measured clearance for CNC(=O)c1ncn2cc(-c3c(F)ccc(NS(=O)(=O)c4cc(Cl)cnc4OC)c3F)ncc12 [HC-7366-K]
Key: 5.84

---

Assay: Pharmacokinetics of HC-7366 in male and female beagle dogs following IV and oral administration of HC-7366-K (plasma and urine, LC-MS/MS)
Assay type: in vivo, Beagle Dog
Conditions: Female Beagle dog, PO 10 mg/kg, t = 48 h, plasma, mean n = 3
RECORDED_METRIC: AUC(0-t) (µg·h/mL)
// units = µg·h/mL; emit number, no label

Exercise: Quick one: give measured AUC(0-t) for CNC(=O)c1ncn2cc(-c3c(F)ccc(NS(=O)(=O)c4cc(Cl)cnc4OC)c3F)ncc12 [HC-7366-K]
Key: 1260

---

Test: Pharmacokinetics of HC-7366 in male and female beagle dogs following IV and oral administration of HC-7366-K (plasma and urine, LC-MS/MS)
Assay type: in vivo, Beagle Dog
Conditions: dog; Male Beagle dogs, PO 10 mg/kg, t = 48 h, HC-7366 in plasma, mean n = 3
RECORDED_METRIC: AUC(0-t) (µg·h/mL)
// units = µg·h/mL; emit number, no label

Exercise: Quick one: give measured AUC(0-t) for CNC(=O)c1ncn2cc(-c3c(F)ccc(NS(=O)(=O)c4cc(Cl)cnc4OC)c3F)ncc12
Key: 1260

---

Assay: Pharmacokinetics of HC-7366 in male and female beagle dogs following IV and oral administration of HC-7366-K (plasma and urine, LC-MS/MS)
Type: in vivo, Beagle Dog
Details: plasma; male beagle dog, oral 150 mg/kg, three animals; read-out: time post dose at which Cmax was observed (Tmax)
RECORDED_METRIC: Tmax

Exercise: Quick one: give measured Tmax for CNC(=O)c1ncn2cc(-c3c(F)ccc(NS(=O)(=O)c4cc(Cl)cnc4OC)c3F)ncc12 [HC-7366-K]
Key: 1 to 4 h

---

Test: Pharmacokinetics of HC-7366 in male and female beagle dogs following IV and oral administration of HC-7366-K (plasma and urine, LC-MS/MS)
Assay type: in vivo, Beagle Dog
Details: dog, plasma; female beagle dogs, oral 1 mg/kg; read-out: terminal half-life (t1/2) (converted)
RECORDED_METRIC: half-life
// return the numeric value with its unit appended

Exercise: Quick one: give measured half-life for CNC(=O)c1ncn2cc(-c3c(F)ccc(NS(=O)(=O)c4cc(Cl)cnc4OC)c3F)ncc12
Key: 13 h
